Ref: patent US20250034110A1

Quick reference: pIC50 of the listed items.
- TARGET_ENTITY: human LPAR1 (Homo sapiens, UniProt Q92633)
- Sequence (Q92633 whole entry): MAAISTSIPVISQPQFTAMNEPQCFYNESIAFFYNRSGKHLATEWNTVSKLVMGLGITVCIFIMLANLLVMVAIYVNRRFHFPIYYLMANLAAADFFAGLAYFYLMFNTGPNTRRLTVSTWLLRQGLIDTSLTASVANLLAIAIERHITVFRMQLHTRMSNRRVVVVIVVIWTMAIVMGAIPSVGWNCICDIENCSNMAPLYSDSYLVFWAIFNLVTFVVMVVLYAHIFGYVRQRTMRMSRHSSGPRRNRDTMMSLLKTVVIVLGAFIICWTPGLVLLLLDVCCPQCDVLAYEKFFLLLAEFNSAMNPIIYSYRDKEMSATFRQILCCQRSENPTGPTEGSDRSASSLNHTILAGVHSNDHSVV
- RUN_DESCRIPTION: In vitro functional assay of lysophosphatidic acid receptor 1 activity (calcium flux)
- Assay type: cell-based
- CONDITION_SET: B103 cells stably expressing human LPAR1; calcium flux (Fluo-4 NW) after lysophosphatidic acid (18:1) at EC80; 100 pM to 10 μM; read-out: LPAR1 IC50
pIC50: −log10 of the molar value.

For record CC(C)c1ccccc1N(C(=O)Nc1cc(F)c(Cl)cc1OCC(F)F)[C@H]1CC[C@H](C(=O)O)CC1 the listed pIC50 is > 8.00

Field pIC50 (entry COc1ccc(NC(=O)N(c2ccccc2C2CC2)[C@H]2CC[C@H](C(=O)O)CC2)c(OC(F)F)n1 ) reads 7.00 to 8.00

Sample Cc1ccc(NC(=O)N(c2ccccc2C(C)C)C2CC3(C2)CS(=O)(=O)C3)c(OC(F)F)n1 ; pIC50 observed: 6.00 to 7.00

Kindly note the recorded pIC50 for Cc1ccc(NC(=O)N(c2ccccc2C(C)C)C2CCC(=O)CC2)c(OC(F)F)n1 , which is 6.00 to 7.00

Measured pIC50 of COc1cc(C)c(Cl)cc1NC(=O)N(c1ccccc1C(C)C)[C@H]1CC[C@H](C(=O)O)CC1 : 7.00 to 8.00

Field pIC50 (entry Cc1ccc(NC(=O)N(C[C@H]2CC[C@@H](C(=O)O)CC2)c2ccccc2C(C)C)c(OC(F)F)n1 ) reads 7.00 to 8.00

The reported value for Cc1ccc(NC(=O)N(C[C@@H]2C[C@H]2C(=O)O)c2ccccc2C(C)C)c(OC(F)F)n1 (racemic) in terms of pIC50 is 6.00 to 7.00

* * *

- TARGET_ENTITY: UniProtKB Q92633
- RUN_DESCRIPTION: In vitro functional assay of lysophosphatidic acid receptor 1 activity (calcium flux)
- Format: cell-based
- CONDITION_SET: LPAR1 IC50
pIC50: −log10 of the molar value.
PROPERTY_MEASURED: pIC50

Some solved entries appear below for comparison.
Cc1ccc(NC(=O)N(c2ccccc2C(C)C)[C@H]2[C@@H]3CN(C(=O)OC(C)(C)C)C[C@@H]32)c(OC(F)F)n1 : < 6.00
CC(=O)N1CCC(N(C(=O)Nc2cc(F)c(Br)nc2OC(F)F)c2ccccc2C(C)C)CC1 : 7.00 to 8.00
CC(=O)N1CCC(N(C(=O)Nc2ccc(C)cn2)c2ccccc2C(C)C)CC1 : < 6.00
CC(=O)N1CCC(N(C(=O)Nc2ncc(Br)cc2OC(F)F)c2ncccc2C(C)C)CC1 : < 6.00
CC(=O)N1CCC(N(C(=O)Nc2cnc(C)cn2)c2ccccc2C(C)C)CC1 : 6.00 to 7.00
COc1ccc(NC(=O)N(c2ccccc2C(C)C)C2CCN(C(C)=O)CC2)c(OC(F)F)n1 : 7.00 to 8.00
CC(=O)N1CCC(N(C(=O)Nc2ccc(C(F)F)nc2OC(F)F)c2ccccc2C(C)C)CC1 : 7.00 to 8.00
CC(=O)N1CCC(N(C(=O)Nc2cccnc2OC(F)F)c2ccccc2C(C)C)CC1 : 7.00 to 8.00

For reference, reported pIC50 for CC(=O)N1CCC(N(C(=O)Nc2ccc(C)nc2OCC(F)(F)F)c2ccccc2C(C)C)CC1 stands at 6.00 to 7.00

The molecule listed as CC(=O)N1CCC(N(C(=O)Nc2ncc(Br)cc2OC(F)F)c2ccccc2C(C)C)CC1 shows pIC50 equal to 7.00 to 8.00

Record summary for Cc1ccc(NC(=O)N(c2ccccc2C(C)C)C2CCN(C(=O)Cn3nccn3)CC2)c(OC(F)F)n1 : reported pIC50 = > 8.00

Form: molecule = CC(=O)N1CCC(N(C(=O)Nc2cc(F)c(C)nc2OC(F)F)c2ccccc2C(C)C)CC1 ; pIC50 = 7.00 to 8.00

The reported value for CCOc1ccc(NC(=O)N(c2ccccc2C(C)C)C2CCN(C(C)=O)CC2)c(OC(F)F)n1 in terms of pIC50 is 7.00 to 8.00

* * *

- TARGET_ENTITY: human LPAR1 (Homo sapiens, UniProt Q92633)
- RUN_DESCRIPTION: In vitro functional assay of lysophosphatidic acid receptor 1 activity (calcium flux)
- Assay type: cell-based
- CONDITION_SET: B103 cells stably expressing human LPAR1; calcium flux (Fluo-4 NW) after lysophosphatidic acid (18:1) at EC80; 100 pM to 10 μM; read-out: LPAR1 IC50
PROPERTY_MEASURED: IC50

Example compounds with recorded IC50:
Cc1ccc(NC(=O)N(c2ccccc2C(C)C)[C@H]2CC[C@@H](C(C)(C)O)CC2)c(OC(F)F)n1 : 100 to 1000 nM
Cc1ccc(NC(=O)N(CC23CCC(C(=O)O)(CC2)CC3)c2ccccc2C(C)C)c(OC(F)F)n1 : 10 to 100 nM
CC(C)Oc1ccc(NC(=O)N(c2ccccc2C(C)C)[C@H]2CC[C@H](C(=O)O)CC2)c(OC(C)C)n1 : 100 to 1000 nM

Result for COc1ccc(NC(=O)N(c2ccccc2C(C)C)[C@H]2CC[C@](C)(C(=O)O)CC2)c(OC(F)F)n1 , tested on human LPAR1 (Homo sapiens, UniProt Q92633), IC50: 10 to 100 nM

Field IC50 (system: human LPAR1 (Homo sapiens, UniProt Q92633)) for entry CC(=O)N1CC2(CC(N(C(=O)Nc3ncc(Br)cc3OC(F)F)c3ccccc3C(C)C)C2)C1 = 100 to 1000 nM

IC50 on human LPAR1 (Homo sapiens, UniProt Q92633) for CC(=O)N[C@H]1CC[C@@H](N(C(=O)Nc2ccc(C)nc2OC(F)F)c2ccccc2C(C)C)CC1 is 100 to 1000 nM

With human LPAR1 (Homo sapiens, UniProt Q92633) as the test system, Cc1ccc(NC(=O)N(CC23CC(C(=O)O)(CO2)C3)c2ccccc2C(C)C)c(OC(F)F)n1 showed IC50 of 10 to 100 nM

Result for Cc1ccc(NC(=O)N(c2ccccc2C(C)C)[C@H]2CCC(=O)N(C)C2)c(OC(F)F)n1 , tested on human LPAR1 (Homo sapiens, UniProt Q92633), IC50: 10 to 100 nM

Form: item Cc1ccc(NC(=O)N(C[C@H]2CC[C@H](C(=O)O)CC2)c2ccccc2C(C)C)c(OC(F)F)n1 ; test system human LPAR1 (Homo sapiens, UniProt Q92633); IC50: 10 to 100 nM

Record Cc1ccc(NC(=O)N(c2ccccc2C(C)C)[C@H]2C[C@@H](C(=O)O)C2)c(OC(F)F)n1 has human LPAR1 (Homo sapiens, UniProt Q92633) IC50 equal to 100 to 1000 nM

The observed IC50 for Cc1ccc(NC(=O)N(c2ccccc2C(C)C)C2CN(CCC3(C(=O)O)CCC3)C2)c(OC(F)F)n1 when tested with human LPAR1 (Homo sapiens, UniProt Q92633) stands at 100 to 1000 nM

human LPAR1 (Homo sapiens, UniProt Q92633) IC50 of Cc1ccc(NC(=O)N(c2ccccc2C(C)C)[C@H]2CC[C@H](CC(=O)O)CC2)c(OC(F)F)n1 is < 10 nM

Observed IC50 on human LPAR1 (Homo sapiens, UniProt Q92633), entry COc1ccc(NC(=O)N(c2ccccc2C(C)C)[C@H]2CC[C@H](C(=O)O)CC2)c(OC(F)F)n1 , equals 10 to 100 nM

The observed IC50 for Cc1ccc(NC(=O)N(c2ccccc2C(C)C)C2CCC(NC(=O)c3nccs3)CC2)c(OC(F)F)n1 (stereo not drawn) when tested with human LPAR1 (Homo sapiens, UniProt Q92633) stands at 100 to 1000 nM

Reported IC50 (human LPAR1 (Homo sapiens, UniProt Q92633)) for entry CC(C)c1ccccc1N(C(=O)Nc1ncc(Cl)cc1OC(F)F)C1CC(CC(=O)O)C1 (stereo not drawn) is < 10 nM

* * *

- TARGET_ENTITY: UniProt:Q92633
- RUN_DESCRIPTION: In vitro functional assay of lysophosphatidic acid receptor 1 activity (calcium flux)
- Type: cell-based
- CONDITION_SET: LPAR1 IC50
pIC50: −log10 of the molar value.
PROPERTY_MEASURED: pIC50

Below are worked cases with known answers.
CC(=O)N1CCC(N(C(=O)Nc2ncc(F)cc2Br)c2ccccc2C(C)C)CC1 : < 6.00
CC(=O)N1CCC(N(C(=O)Nc2ncc(C(F)(F)F)cc2Br)c2ccccc2C(C)C)CC1 : < 6.00

Consider the record given below.
Here CC(=O)N1CCC(N(C(=O)Nc2ncc(Br)cc2C=O)c2ccccc2C(C)C)CC1 was tested on UniProt:Q92633, and its pIC50 came to 6.00 to 7.00

* * *

Known IC50 of a selection of compounds
- TARGET_ENTITY: human LPAR1 (Homo sapiens, UniProt Q92633)
- RUN_DESCRIPTION: In vitro functional assay of lysophosphatidic acid receptor 1 activity (calcium flux)
- Format: cell-based
- CONDITION_SET: B103 cells stably expressing human LPAR1; calcium flux (Fluo-4 NW) after lysophosphatidic acid (18:1) at EC80; 100 pM to 10 μM; read-out: LPAR1 IC50

Sample answers from the record:
Cc1ccc(NC(=O)N(c2ccccc2C(C)C)C2CN(S(C)(=O)=O)C2)c(OC(F)F)n1 : 100 to 1000 nM
COc1cc(C(F)F)ncc1NC(=O)N(c1ccccc1C(C)C)[C@H]1C[C@@H](CC(=O)O)C1 : 100 to 1000 nM
COc1ccc(NC(=O)N(c2ccccc2C(C)C)[C@H]2C[C@@H](CC(=O)O)C2)c(OCC(F)F)n1 : 10 to 100 nM
CC(=O)N1CC[C@H]1CN(C(=O)Nc1ccc(C)nc1OC(F)F)c1ccccc1C(C)C : 100 to 1000 nM
COC(=O)C1CC(N(C(=O)Nc2ncc(Br)cc2OC(F)F)c2ccccc2C(C)C)C1 (centres unmarked) : 10 to 100 nM

In plain terms, CC(C)c1ccccc1N(C(=O)Nc1ccc(Cl)cn1)[C@H]1CC[C@H](C(=O)O)CC1 has a documented IC50 of 10 to 100 nM

IC50 reported for this compound COc1ccc(NC(=O)N(c2ccccc2C(C)C)C2CCCN(C(C)=O)C2)c(OC(F)F)n1 (centres unmarked) : 100 to 1000 nM

Value of measured IC50 for the entry COc1ccc(NC(=O)N(c2ccccc2C(C)C)[C@H]2CCN(C3COC3)C2)c(OC(F)F)n1 : 100 to 1000 nM
